# Test Details: P. berghei load reduction in hepatocytes – cell-based, HepG2, luciferase luminescence, HepG2 viability, primary screen (AID 624349);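 note: 100% = mean of DMSO negative control wells on the same plate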
# Condition Notes: P. berghei liver stage in HepG2, luciferase luminescence, concentration not given here; measured here: HepG2 viability without parasites
Numbered stars: 1 amine (or outer) side, 2 acyl side, 3 side chain; on linkers, the order of the positions; unused ones are H or OH. Bridge positions count the residues as written; N and C are the ends. Square brackets hold non-standard residues; d marks the D form. Peptide text beside a SMILES is read from it. * marks the point of attachment. Heptanoyl(6-Me) = CC(C)CCCCC(=O)*; X3 = CC(C)C(CN[*:1])C(=O)[*:2]; Dab = NCC[CH](N)C(=O)O
# if measured viability < 90%: yes  # else: no

* C[C@@H]1C(=O)O[C@H]2CC34[C@H]5C[C@@H](C(C)(C)C)[C@]36[C@@H](OC(=O)[C@@H]6O)O[C@@]4(C(=O)O5)[C@]21O (stereo partly drawn) | no
* CC(C)CCCCC(=O)NC(CCN)C(=O)NC(C(=O)NC(CCN)C(=O)NC1CCNC(=O)C(C(C)O)NC(=O)C(CCN)NC(=O)C(CCN)NC(=O)C(C(C)C)CNC(=O)C(CC(C)C)NC(=O)C(CCN)NC1=O)C(C)O (stereo not drawn) ({Heptanoyl(6-Me)}-[Dab]T[Dab][Dab][Dab]L[X3][Dab][Dab]T; lactam 4-C; configuration not given here) | yes
* OC(CCN1CCCCC1)(c1ccccc1)C1C[C@@H]2C=C[C@H]1C2 (stereo partly drawn) | no
* NC(N)=NCCNS(=O)(=O)c1cccc2cnccc12 | no
* CCC(=O)[C@@]1(C)[C@H](C)C[C@H]2[C@@H]3CCC4=CC(=O)C=C[C@]4(C)[C@H]3[C@@H](O)C[C@@]21C | yes

Query: Criterion: viability strictly below 90%. Is it met by O=C(O)C(O)C(O)C(O)C(O)C(=O)O (stereo not drawn) (tested in a mixture with another compound) ?
Reply: yes

Query: Lab note: viability threshold 90%. Does this molecule come in strictly under it? CC(=O)NC1SCCC1=O (stereo not drawn)
Reply: yes

---

# Target: Mitogen-activated protein kinase 7 (Homo sapiens) (UniProt Q13164)
# Sequence (Q13164 whole entry, looked up, the tested form may be a part): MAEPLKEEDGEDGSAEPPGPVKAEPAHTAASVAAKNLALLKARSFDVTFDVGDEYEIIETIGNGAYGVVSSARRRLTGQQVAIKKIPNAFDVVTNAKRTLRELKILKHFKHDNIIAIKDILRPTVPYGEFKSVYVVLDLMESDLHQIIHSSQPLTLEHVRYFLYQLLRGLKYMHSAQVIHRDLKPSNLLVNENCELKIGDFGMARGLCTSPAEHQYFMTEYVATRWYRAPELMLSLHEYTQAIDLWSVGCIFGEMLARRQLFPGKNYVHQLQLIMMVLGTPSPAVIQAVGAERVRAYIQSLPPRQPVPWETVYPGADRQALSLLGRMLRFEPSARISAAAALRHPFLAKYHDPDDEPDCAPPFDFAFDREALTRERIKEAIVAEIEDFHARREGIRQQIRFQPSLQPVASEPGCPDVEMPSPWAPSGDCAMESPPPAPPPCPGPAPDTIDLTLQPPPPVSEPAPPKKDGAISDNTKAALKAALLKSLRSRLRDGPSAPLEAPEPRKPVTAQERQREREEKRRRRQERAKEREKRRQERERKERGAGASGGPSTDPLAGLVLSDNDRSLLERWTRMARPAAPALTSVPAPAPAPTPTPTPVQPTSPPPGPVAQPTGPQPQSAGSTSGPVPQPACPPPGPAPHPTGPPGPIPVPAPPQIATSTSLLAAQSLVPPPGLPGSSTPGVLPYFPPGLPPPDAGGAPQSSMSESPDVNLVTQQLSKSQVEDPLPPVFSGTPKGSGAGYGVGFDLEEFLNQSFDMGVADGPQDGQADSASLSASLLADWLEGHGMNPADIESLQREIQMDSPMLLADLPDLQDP
# Test Details: Gal4-ERK5 driven luciferase induction – cell-based, HTS, primary screen (AID 1508626);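 note: luciferase driven by Gal4-ERK5 fusion binding five Gal4 sites before minimal TATA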
# Condition Notes: HeLa Gal4-ERK5 transactivation, 18 h, at 5 µM
Calls of active or inactive are those of the source.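 How the source made its calls: active means luciferase signal above three times the same-plate solvent-only control wells; inactive means the rest.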
// one of 1 for active, 0 for inactive, no free text

Examples from the recorded data:
* C[C@@]12CCc3occc3[C@H]1CC[C@@]13C[C@@H](CC[C@H]12)[C@@](O)(CO)C3 | 0
* C=CCCCCCCCCCCCC(O)CC(O)CO (stereo unspecified) | 1
* CC1C(=O)OC2CC34C5CC(C(C)(C)C)C36C(OC(=O)C6O)OC4(C(=O)O5)C21O (stereo unspecified) | 0
* O=c1c(O)c(-c2ccccc2)oc2cccc(O)c12 | 0
* C=CCSC[C@H](N)C(=O)O | 0

Alright, here's another compound for you.
Query: Called result for `O=c1c2cc(O)c(O)cc2oc2cc(O)c([C@@H]3O[C@H](CO)[C@@H](O)[C@H](O)[C@H]3O)c(O)c12`
Reply: 0

---

# Test Details: MELAS cybrid and Rieske KO viability enhancers – cell-based, MELAS cybrids, Rieske KO mouse fibroblasts, CellTiter-Glo, primary screen (AID 1508586);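 note: z relative to plate mean and SD of compound and empty wells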
# Condition Notes: MELAS cybrid survival, low glucose, CellTiter-Glo 48 h; stronger effect = higher value
Parameter Measured: z-score
Answers are plain numbers.

Worked set:
• c1cc(-c2nc(Cc3ccsc3)no2)c2nccnc2c1 = -0.0904
• COc1cccc(Nc2nccc(-c3cnn4ncccc34)n2)c1 = 0.875
• c1ccc(-c2noc(-c3cccc4cccnc34)n2)nc1 = -0.283
• Cc1cc(NC(=O)Cn2ncc3cc(-c4ccc(F)c(F)c4)ccc32)n(C)n1 = 0.668
• Cc1nc(NC(=O)N2CCCC2C(N)=O)sc1-c1csc(C(C)(C)C)n1 (centres undefined) = -0.368

Hi there! I need z-score for each item below, if you can.
1. CC(C)N(CCCNC(=O)Nc1ccc(C(C)(C)C)cc1)CC1OC(n2ccc3c(N)ncnc32)C(O)C1O (centres undefined)
2. O=c1[nH]cnc2c1CN=N2
3. COc1ccc2c(C(=O)N(C)Cc3nonc3C)cc(-c3cnn(C)c3)nc2c1
4. COC(=O)C1C(O)CC[C@H]2CN3CCc4c([nH]c5ccccc45)[C@@H]3C[C@H]12 (some centres undefined)
5. CC1OC(OC2C(CO)OC(OC3C(CO)OC(O)C(O)C3O)C(O)C2O)C(O)C(O)C1NC1C=C(CO)C(O)C(O)C1O (centres undefined)
6. OCC1OC(O[C@]2(CCl)OC(CCl)C(O)C2O)C(O)C(O)C1Cl (some centres undefined)

Reply:
1. -0.287
2. 0.591
3. -0.189
4. -0.303
5. -0.375
6. -0.278

Give z-score for each of the items listed below.
1. COc1cccc(-c2cc3c(n(Cc4ccccn4)c2=O)CCN(C(=O)c2csc(C)n2)C3)c1
2. COc1ccccc1C(=O)N1CCN2C(=O)[C@H](CCCCN)NC(=O)[C@H]2C1

Reply:
[-0.876, 0.643]

Query: # input molecule: `CCOC(=O)c1c(C)nn(-c2ccc(OC)cc2)c1C` ; wanted: its z-score
Reply: 0.662
